Biological target: UniProt P35372
Experiment: μ-opioid receptor [35S]GTPγS functional assay, U-2 OS cells
Format: biochemical
Conditions: relative to DAMGO; U-2 OS cells
measurement type: Emax (%)
State just the number; it will be interpreted in %.

Recorded results for 3 compounds are shown here.
structure notation: CCN1C(=O)N(CC)[C@]2(CC[C@@]3(O)[C@H]4Cc5ccc(O)cc5[C@@]3(CCN4C)C2)C1=O
unit spec: %
Emax: 78

structure notation: CCN1C(=O)N[C@]2(CC[C@@]3(O)[C@H]4Cc5ccc(O)cc5[C@@]3(CCN4C)C2)C1=O
unit spec: %
Emax: 103

structure notation: CCN1C(=O)NC(=O)[C@@]12CC[C@@]1(O)[C@H]3Cc4ccc(O)cc4[C@@]1(CCN3C)C2
unit spec: %
Emax: 97.3

Which value of Emax has been reported for "CCN1CC[C@]23C[C@]4(CC[C@@]2(O)[C@H]1Cc1ccc(OC)cc13)NC(=O)NC4=O" in the records?
8

Would you kindly repeat that for "COc1ccc2c(c1)[C@]13CCN(CCF)[C@H](C2)[C@]1(O)CC[C@@]1(C3)NC(=O)NC1=O" ?
14.5

Would you kindly repeat that for "CCN1C(=O)N[C@]2(CC[C@@]3(O)[C@H]4Cc5ccc(O)cc5[C@@]3(CCN4CC3CC3)C2)C1=O" ?
45.9

Would you kindly repeat that for "COc1ccc2c(c1)[C@]13CCN(CC4CCOCC4)[C@H](C2)[C@]1(O)CC[C@@]1(C3)NC(=O)NC1=O" ?
6.67

Would you kindly repeat that for "CN1CC[C@]23C[C@@]4(CC[C@@]2(O)[C@H]1Cc1ccc(O)cc13)C(=O)NC(=O)N4C" ?
99

Would you kindly repeat that for "O=C1NC(=O)[C@@]2(CC[C@@]3(O)[C@H]4Cc5ccc(O)cc5[C@@]3(CCN4CCC(F)(F)F)C2)N1" ?
39.7

Would you kindly repeat that for "O=C1NC(=O)[C@@]2(CC[C@@]3(O)[C@H]4Cc5ccc(O)cc5[C@@]3(CCN4CC3CC3)C2)N1Cc1ccccc1" ?
20

###

Target: μ-opioid receptor (Homo sapiens (Human), UniProt P35372)
Experiment: μ-opioid receptor [35S]GTPγS functional assay, U-2 OS cells
Type: biochemical
measurement type: log10 of EC50 (log10 of the value in µM)
Friendly reminder: values = log10 of EC50, unit µM.

Recorded results for 5 molecules are shown here.
molecule: O=C1N[C@]2(CC[C@@]3(O)[C@H]4Cc5ccc(O)cc5[C@@]3(CCN4CC3CC3)C2)C(=O)N1Cc1ccc(O)cc1 [Compound 47]
log10 of EC50: -2.33
--
molecule: O=C1NC(=O)[C@@]2(CC[C@@]3(O)[C@H]4Cc5ccc(O)cc5[C@@]3(CCN4CCF)C2)N1 [Compound 30]
log10 of EC50: -0.99
--
molecule: CCN1C(=O)NC(=O)[C@@]12CC[C@@]1(O)[C@H]3Cc4ccc(O)cc4[C@@]1(CCN3C)C2 [Compound 69]
log10 of EC50: -1.36
--
molecule: O=C1NC(=O)[C@@]2(CC[C@@]3(O)[C@H]4Cc5ccc(O)cc5[C@@]3(CCN4CC3CC3)C2)N1Cc1ccccc1 [Compound 67]
log10 of EC50: -2.03
--
molecule: CCN1C(=O)N[C@]2(CC[C@@]3(O)[C@H]4Cc5ccc(O)cc5[C@@]3(CCN4CC)C2)C1=O [Compound 31]
log10 of EC50: 0.18

Please provide the recorded log10 of EC50 for O=C1NC(=O)[C@@]2(CC[C@@]3(O)[C@H]4Cc5ccc(O)cc5[C@@]3(CCN4CC3CC3)C2)N1CC(F)(F)F [Compound 64] , tested on μ-opioid receptor (Homo sapiens (Human), UniProt P35372).
-2.56

Would you kindly repeat that for CN1CC[C@]23C[C@@]4(CC[C@@]2(O)[C@H]1Cc1ccc(O)cc13)C(=O)NC(=O)N4C [Compound 70] ?
-1.63

Would you kindly repeat that for COc1ccc2c(c1)[C@]13CCN(CCc4ccccc4)[C@H](C2)[C@]1(O)CC[C@@]1(C3)NC(=O)NC1=O [Compound 20] ?
-0.18

Would you kindly repeat that for O=C1NC(=O)[C@@]2(CC[C@@]3(O)[C@H]4Cc5ccc(O)cc5[C@@]3(CCN4CCC(F)(F)F)C2)N1 [Compound 33] ?
-0.57

Would you kindly repeat that for COc1ccc2c(c1)[C@]13CCN(CCC(C)C)[C@H](C2)[C@]1(O)CC[C@@]1(C3)NC(=O)NC1=O [Compound 22] ?
0.60

Would you kindly repeat that for CCN1C(=O)N(CC)[C@]2(CC[C@@]3(O)[C@H]4Cc5ccc(O)cc5[C@@]3(CCN4C)C2)C1=O [Compound 62] ?
-1.12

Would you kindly repeat that for CN1C(=O)NC(=O)[C@@]12CC[C@@]1(O)[C@H]3Cc4ccc(O)cc4[C@@]1(CCN3CC1CC1)C2 [Compound 63] ?
-3.01

Where these numbers come from: patent US8987287B2
